Test system: MDA-N
Experiment: NCI tumour cell line growth inhibition, 48 h
Where a SMILES comes first, the peptide text is derived from it. [ ]: non-standard residue; d: D form. ξ: configuration not given here. ξLac(3-iPr) = CC(C)CC(O)C(=O)O; NMeV = CN[CH](C(=O)O)C(C)C; NMeA = CN[CH](C)C(=O)O; βAla = NCCC(=O)O
I'd appreciate it if you could supply TGI values for the items below.

In the examples that follow, each entry is paired with its recorded TGI.
molecule=Oc1cc(N2CCCC2)ccc1/C=N/N1C(=S)N(c2ccccc2)C(=Nc2ccccc2)C1=Nc1ccccc1 assay_result="> 100 µM"
molecule=CCN(CCCl)c1cc(CN(C)C)cc(NC(=O)C23CCC(C(=O)Nc4cc(CN(C)C)cc(N(CC)CCCl)c4)(CC2)CC3)c1 assay_result="2.38 µM"
molecule="ONC1=Nc2ccccc2C(=S)N2CSCC12 (centres undefined)" assay_result="45.1 µM"
molecule=O=C(N/N=C/c1ccc([N+](=O)[O-])cc1)Nc1ccc(Br)cc1 assay_result="> 100 µM"
molecule="CCC(C)C1NC(=O)C2CCCN2C(=O)C(CC(C)C)OC(=O)CCNC(=O)C(C)N(C)C(=O)C(C(C)C)N(C)C1=O (centres undefined) (cyclo([ξLac(3-iPr)]PI[NMeV][NMeA][βAla]); configuration not given here)" assay_result="17.3 µM"
molecule="CCCCCCCCCCCCCCCCCCNc1nc(=O)n(C2CC(O)C(COP(=O)(O)OCC3OC(n4ccc(N)nc4=O)C(O)C3O)O2)cc1F (centres undefined)" assay_result="> 100 µM"
molecule=COC(=O)[C@H]1COC(=O)N1 assay_result="> 100 µM"
molecule=CC(C)C[C@H](NC(=O)[C@H](Cc1ccc(F)cc1)NC(=O)c1ccccn1)B(O)O assay_result="< 0.01 µM"
molecule="CN1C(=O)C(O)CC1c1ccccc1C(F)(F)F (centres undefined)" assay_result="> 100 µM"
molecule="c1ccc(C(=NCCC2CNc3ccccc32)c2ccccc2)cc1 (centres undefined)" assay_result="> 100 µM"

For each of the molecules below, note its TGI.
1. O=C(c1ccccc1)C1C(c2ccccc2)N1S(=O)(=O)c1ccccc1 (centres undefined)
2. CCOC(=O)c1c(C)n(C)c2c1cc(O)c1[nH]c3c(c12)CCCC3
3. O=C1NNC2NC(=O)C3(NN2C1=O)c1ccccc1-c1ccccc13 (centres undefined)
4. Cc1ccc(NS(=O)(=O)c2cccc(C#N)c2)c2[nH]cc(C#N)c12
5. O=C1OC(C2(O)OC(=O)c3ccccc32)c2ccccc21 (centres undefined)
6. COc1cc(C2=N/C(=C/c3cccs3)C(=O)O2)cc(OC)c1OC
7. CN(C)c1ccc(C2CC(c3ccc4ccccc4c3O)=NN2c2ccc([N+](=O)[O-])cc2[N+](=O)[O-])cc1 (centres undefined)

Result:
> 100 µM
34.3 µM
> 100 µM
> 91.6 µM
> 100 µM
> 100 µM
30.5 µM

For each of the molecules below, note its TGI.
1. CC1(C)N=C(N)N=C(N)N1c1cccc(C(=O)Nc2ccc(S(=O)(=O)F)cc2)c1
2. N#CC(C#N)N=Nc1ccc(-c2nc3ccccc3o2)cc1

Result:
1. > 100 µM
2. 45.2 µM
